target: human P2X3 receptor (Homo sapiens (Human), UniProt P56373); experiment: Evaluation of human P2X3 receptor inhibitory activity (Fluo-3 calcium fluorescence, FDSS 3000, ATP stimulation); assay type: cell-based; details: C6BU-1 cells stably expressing human P2X3 receptor
Sequence (P56373 whole entry): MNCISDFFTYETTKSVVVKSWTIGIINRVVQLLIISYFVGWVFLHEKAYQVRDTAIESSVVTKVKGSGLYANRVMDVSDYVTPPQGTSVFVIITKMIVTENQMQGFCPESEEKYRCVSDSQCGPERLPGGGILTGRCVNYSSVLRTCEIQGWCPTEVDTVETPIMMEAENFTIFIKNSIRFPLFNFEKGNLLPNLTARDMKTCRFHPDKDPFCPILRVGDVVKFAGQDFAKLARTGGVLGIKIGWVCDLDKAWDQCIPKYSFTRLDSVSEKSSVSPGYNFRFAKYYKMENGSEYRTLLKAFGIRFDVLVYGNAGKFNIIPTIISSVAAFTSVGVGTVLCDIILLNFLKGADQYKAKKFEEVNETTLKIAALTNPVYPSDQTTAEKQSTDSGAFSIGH
Measurement label: pIC50
Conceptually, pIC50 converts a concentration in mol/L into minus its log10.

# example entries with known answers
chemical_string=COc1cc(/N=c2\[nH]c(=O)n([C@@H](C)[C@@H](C)C(=O)O)c(=O)n2Cc2ccc(C)cc2)ccc1CC(C)C observed=7.85
chemical_string=CC(C)Oc1ccc(/N=c2\[nH]c(=O)n(Cc3cc[nH]c(=O)c3)c(=O)n2Cc2ccc(Cl)cc2)cc1F observed=7.70

Qu. # assay system human P2X3 receptor (Homo sapiens (Human), UniProt P56373): give pIC50 of CCn1c(=O)[nH]/c(=N\c2ccc(Oc3ccc(F)c(C(=O)O)c3)cc2)n(Cc2ccc(Cl)cc2)c1=O
Ans. 7.64

Qu. # assay system human P2X3 receptor (Homo sapiens (Human), UniProt P56373): give pIC50 of COC(=O)[C@@H](C)Cn1c(=O)[nH]/c(=N\c2ccc3c(c2)CCCC3)n(Cc2ccc(Cl)cc2)c1=O
Ans. 6.58

Qu. # assay system human P2X3 receptor (Homo sapiens (Human), UniProt P56373): give pIC50 of CCn1c(=O)[nH]/c(=N\c2ccc(Oc3nc(C)c(C(=O)O)s3)cc2)n(Cc2ccc(Cl)cc2)c1=O
Ans. 7.92

Qu. # assay system human P2X3 receptor (Homo sapiens (Human), UniProt P56373): give pIC50 of Cc1ccc(Cn2c(=O)n(CCC(=O)O)c(=O)[nH]/c2=N\c2ccc(Oc3ccc(C)nc3)cc2)cc1
Ans. 7.32

Qu. # assay system human P2X3 receptor (Homo sapiens (Human), UniProt P56373): give pIC50 of CCn1c(=O)[nH]/c(=N\c2ccc(Oc3cc(F)cc(C(=O)O)c3)cc2)n(Cc2ccc(Cl)cc2)c1=O
Ans. 8.22

Qu. # assay system human P2X3 receptor (Homo sapiens (Human), UniProt P56373): give pIC50 of NC(=O)Cn1c(=O)[nH]/c(=N\c2ccc(OCC3CC3)cc2)n(Cc2ccc(Cl)cc2)c1=O
Ans. 7.26

Qu. # assay system human P2X3 receptor (Homo sapiens (Human), UniProt P56373): give pIC50 of CCCOc1ccc(/N=c2\[nH]c(=O)n(C(C)(C)CC(=O)OCC)c(=O)n2Cc2ccc(Cl)cc2)cc1
Ans. 7.30

Qu. # assay system human P2X3 receptor (Homo sapiens (Human), UniProt P56373): give pIC50 of Cc1ccc(Cn2c(=O)n(CCC(=O)O)c(=O)[nH]/c2=N\c2ccc(OC3CCC3)cc2)cc1
Ans. 7.29

Qu. # assay system human P2X3 receptor (Homo sapiens (Human), UniProt P56373): give pIC50 of Cc1ccc(Oc2ccc(/N=c3\[nH]c(=O)n([C@H](C)[C@H](C)C(=O)O)c(=O)n3Cc3ccc(Cl)cc3)cc2)cn1
Ans. 7.92

Qu. # assay system human P2X3 receptor (Homo sapiens (Human), UniProt P56373): give pIC50 of CCCc1ccc(/N=c2\[nH]c(=O)n(C[C@H](C)C(=O)OC)c(=O)n2Cc2ccc(C)cc2)cc1C
Ans. 7.43

Qu. # assay system human P2X3 receptor (Homo sapiens (Human), UniProt P56373): give pIC50 of O=C(O)Cn1c(=O)[nH]/c(=N\c2ccc(OC3CCC3)cc2)n(Cc2ccc(Cl)cc2)c1=O
Ans. 6.59

Qu. # assay system human P2X3 receptor (Homo sapiens (Human), UniProt P56373): give pIC50 of Cc1ccc(Cn2c(=O)n(C[C@H](C)C(=O)O)c(=O)[nH]/c2=N\c2ccc(OC3CCCCC3)nc2)cc1
Ans. 6.88

Qu. # assay system human P2X3 receptor (Homo sapiens (Human), UniProt P56373): give pIC50 of COC(=O)[C@@H](C)[C@@H](C)n1c(=O)[nH]/c(=N\c2ccc(Oc3ccc(C)nc3)cc2)n(Cc2ccc(Cl)cc2)c1=O
Ans. 7.82

Qu. # assay system human P2X3 receptor (Homo sapiens (Human), UniProt P56373): give pIC50 of Cc1ccc(Cn2c(=O)n(C)c(=O)[nH]/c2=N\c2ccc(Oc3cccc(C(=O)O)c3)cc2)cc1
Ans. 7.66

Qu. # assay system human P2X3 receptor (Homo sapiens (Human), UniProt P56373): give pIC50 of CC(C)Oc1ccc(/N=c2\[nH]c(=O)n(CC(=O)NC(CO)CO)c(=O)n2Cc2ccc(Cl)cc2)cc1Cl
Ans. 8.40

---

target: human P2X3 receptor (Homo sapiens (Human)); assay: Evaluation of human P2X3 receptor inhibitory activity (Fluo-3 calcium fluorescence, FDSS 3000, ATP stimulation); assay type: cell-based; settings: human P2X3 receptor, Test Example 1
Measurement label: pIC50
Conceptually, pIC50 converts a concentration in mol/L into minus its log10.

# example entries with known answers
compound="CCn1c(=O)[nH]/c(=N\\c2ccc(Oc3ccc(F)c(C(N)=O)c3)cc2)n(Cc2ccc(Cl)cc2)c1=O [Compound I-2235]" measurement_label=pIC50 observed=8.40
compound="CCn1c(=O)[nH]/c(=N\\c2ccc(Oc3cccc(C(N)=O)n3)cc2)n(Cc2ccc(F)cc2)c1=O [Compound I-2495]" measurement_label=pIC50 observed=7.68

Please turn your attention to the following entry.
Qu. Identify measured pIC50 corresponding to O=c1[nH]/c(=N\c2ccc(Oc3ccon3)cc2)n(Cc2ccc(F)cc2)c(=O)n1CCCO [Compound I-2397]
Ans. 7.41

---

biological target: human P2X3 receptor (Homo sapiens (Human)); assay: Evaluation of human P2X3 receptor inhibitory activity (Fluo-3 calcium fluorescence, FDSS 3000, ATP stimulation); type: cell-based; details: C6BU-1 cells stably expressing human P2X3 receptor, Fluo-3 fluorescence, FDSS 3000
// reported IC50 per item
Entry rule: numbers only, all in µM.

# example entries with known answers
compound="C[C@@H](C(=O)O)[C@H](C)n1c(=O)[nH]/c(=N\\c2ccc3oc(-c4ccncc4)nc3c2)n(Cc2ccc(Cl)cc2)c1=O [Compound I-1816]" unit_tag=µM observed=0.3
compound="COC(=O)[C@@H](C)Cn1c(=O)[nH]/c(=N\\c2ccc(CC(C)C)c(C)c2)n(Cc2ccc(Cl)cc2)c1=O [Compound I-0947]" unit_tag=µM observed=0.024
compound="CC1CCC(Cn2c(=O)n(CCC(=O)O)c(=O)[nH]/c2=N\\c2ccc(OC(C)C)c(F)c2)CC1 (stereo not shown) [Compound I-1750]" unit_tag=µM observed=0.021
compound="CC(C)Oc1ccc(/N=c2\\[nH]c(=O)n([C@@H](C)[C@@H](C)C(=O)O)c(=O)n2Cc2ccc(Cl)cc2)cc1Cl [Compound I-0923]" unit_tag=µM observed=0.015
compound="CCOc1ccc(/N=c2\\[nH]c(=O)n(C[C@H](C)C(=O)OC)c(=O)n2Cc2ccc(C)cc2)cc1Br [Compound I-1173]" unit_tag=µM observed=0.009
compound="COC(=O)[C@@H](C)Cn1c(=O)[nH]/c(=N\\c2ccc(CC3CCCC3)cc2)n(Cc2ccc(C)cc2)c1=O [Compound I-1096]" unit_tag=µM observed=0.094

Qu. Identify measured IC50 corresponding to CCCOc1ccc(/N=c2\[nH]c(=O)n(CC3(C(=O)O)CC3)c(=O)n2Cc2ccc(Cl)cc2)cc1 [Compound I-0925]
Ans. 0.059

---

target: human P2X3 receptor (Homo sapiens (Human), UniProt P56373); experiment: Evaluation of human P2X3 receptor inhibitory activity (Fluo-3 calcium fluorescence, FDSS 3000, ATP stimulation); assay type: cell-based; conditions: human P2X3 receptor, Test Example 1;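 further: stimulus was 50 nM ATP with fluorescence followed for 3 min, and the response per well was peak post-ATP fluorescence divided by the reading at measurement start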
// reported IC50 per item
Entry rule: numbers only, all in nM.

# example entries with known answers
compound="CCn1c(=O)[nH]/c(=N\\c2ccc(Sc3ccc(C(=O)OC)cc3)cc2)n(Cc2ccc(Cl)cc2)c1=O [Compound I-2597]" observed=215
compound="Cc1nc2ccc(/N=c3\\[nH]c(=O)n(CCC(=O)O)c(=O)n3Cc3ccc(Cl)cc3)cc2s1 [Compound I-1520]" observed=32
compound="COC(=O)[C@@H](C)n1c(=O)[nH]/c(=N\\c2ccc(Oc3ccon3)cc2)n(Cc2ccc(Cl)cc2)c1=O [Compound I-2460]" observed=35
compound="COC(=O)[C@@H](C)Cn1c(=O)[nH]/c(=N\\c2cc(Cl)cc(Cl)c2)n(Cc2ccc(C)cc2)c1=O [Compound I-1497]" observed=619
compound="Cc1ccc(Cn2c(=O)n([C@H](C)CC(=O)O)c(=O)[nH]/c2=N\\c2ccc(OC(C)C)c(Cl)c2)cc1 [Compound I-0878]" observed=22
compound="COC(=O)c1cccc(Oc2ccc(/N=c3\\[nH]c(=O)n(C)c(=O)n3Cc3ccc(C)cc3)cc2)n1 [Compound I-2266]" observed=44

Qu. Identify measured IC50 corresponding to CCCOc1ccc(/N=c2\[nH]c(=O)n(CCCC(=O)OCC)c(=O)n2Cc2ccc(C)cc2)cc1Cl [Compound I-0861]
Ans. 19

Measured values drawn from patent US9718790B2 for this set.
